Would you mind telling me the reported pEC50 of each entry?
test system: Xenopus laevis embryos; test: frog embryo morphogenesis assay (scoring of developmental defects); format: in vivo; conditions: Xenopus laevis, 72 h, read-out: EC50 with respect to the defective phenotype at 72 hr following treatment
API: returns pEC50 as number; meaning -log10 of concentration in mol/L.

Task: Could you share which pEC50 value was measured for C/C=C/C(=O)N1C(=O)OC[C@@H]1Cc1ccccc1 [Compound 1] ?
Output: 4.86

Task: Could you share which pEC50 value was measured for C/C=C/C(=O)N1C(=O)OC[C@@H]1c1ccccc1 [Compound 30] ?
Output: 5.00

Task: Could you share which pEC50 value was measured for C/C=C/C(=O)N1C(=O)OC[C@@H]1C(C)C [Compound 15] ?
Output: 4.59

Task: Could you share which pEC50 value was measured for C/C=C/C(=O)N1C(=O)O[C@@H](c2ccccc2)[C@@H]1C [Compound 25] ?
Output: 4.86

Task: Could you share which pEC50 value was measured for C=CC(=O)N1C(=O)OC[C@@H]1Cc1ccccc1 [Compound 52] ?
Output: 5.21

Task: Could you share which pEC50 value was measured for C/C=C/C(=O)N1C(=O)O[C@H](c2ccccc2)[C@H]1C [Compound 26] ?
Output: 4.90

Task: Could you share which pEC50 value was measured for C/C=C\C(=O)N1C(=O)OC[C@@H]1Cc1ccccc1 [Compound 17] ?
Output: 4.72

Task: Could you share which pEC50 value was measured for C/C=C/C(=O)N1C(=O)OC[C@H]1Cc1ccccc1 [Compound 45] ?
Output: 5.05

Task: Could you share which pEC50 value was measured for C/C=C/C(=O)N1CCOC1=O [Compound 6] ?
Output: 4.41

---

Tested on: Xenopus laevis embryos
Experiment: frog embryo morphogenesis assay (scoring of developmental defects)
Assay type: in vivo
Conditions: Xenopus laevis; 72 hr after treatment; dose-response, 5 concentrations; read-out: EC50 with respect to the defective phenotype at 72 hr following treatment
Text: In order to identify compounds that specifically perturb morphogenesis in the frog embryo, a suitable method for scoring embryos by characteristic defects was developed. A useful starting point was the “dorso-anterior index” (DAI). The DAI originally was constructed by adding new morphological characteristics to the older “index of axis deficiency” (S. R. Scharf et al., Dev. Biol., 99, 75-87 (1983)). […]
Would you mind telling me the reported pEC50 of each entry?
API: returns pEC50 as number; meaning -log10 of concentration in mol/L.

Task: Could you share which pEC50 value was measured for CCCCC/C=C/C(=O)N1C(=O)OC[C@@H]1Cc1ccccc1 [Compound 23] ?
Output: 4.24

Task: Could you share which pEC50 value was measured for CC#CC(=O)N1C(=O)OC[C@@H]1Cc1ccccc1 [Compound 31] ?
Output: 5.23

Task: Could you share which pEC50 value was measured for O=C(/C=C/c1ccc(O)cc1)N1C(=O)OC[C@@H]1Cc1ccccc1 [Compound 41] ?
Output: 4.57

Task: Could you share which pEC50 value was measured for O=C(/C=C/c1cccc(F)c1)N1C(=O)OC[C@@H]1Cc1ccccc1 [Compound 33] ?
Output: 4.32

Task: Could you share which pEC50 value was measured for O=C(/C=C/c1cccc(C(F)(F)F)c1)N1C(=O)OC[C@@H]1Cc1ccccc1 [Compound 54] ?
Output: 4.52

Task: Could you share which pEC50 value was measured for CC/C=C/C(=O)N1C(=O)OC[C@@H]1Cc1ccccc1 [Compound 13] ?
Output: 4.26

---

Tested on: Madin-Darby canine kidney (MDCK) cell monolayers
Assay: scrape-wound closure assay in MDCK cell monolayers
Type: cell-based
Conditions: Canis lupus familiaris, MDCK, 12 h, read-out: calculated IC50 for inhibition of wound closure at 12 hours
Method: A method of determining the ability of a compound to inhibit or accelerate cell motility is a scrape-wound closure assay using cultured mammalian epithelial cell monolayers. […] Wound closure assay and compound screening: MDCK cells were plated on multiwell tissue culture plates and cultured at 37° C. and 5% CO2 with medium changes every two days until confluent. […] The number of lamellipodia at the wound margin was also counted at these times. […]
recorded.endpoint: pIC50
API: returns pIC50 as number; meaning -log10 of concentration in mol/L.

Task: Could you share which pIC50 value was measured for C/C=C/C(=O)N1C(=O)OC[C@@H]1Cc1ccccc1 ?
Output: 4.85

Source of measurements: patent US7390826B2
